System: HIV-1 IIIB strain
protocol details: MT-4 HIV Wild Type Virus Infection Assay (IIIB Virus)
Type: cell-based
recorded conditions: Human immunodeficiency virus 1, IIIB, MT4, 120 h, MT-4 cells acutely infected with HIV-1 IIIB, 5 day incubation, Cell-titer glo
pEC50: −log10 of the molar value.
Below, each entry is listed alongside its reported pEC50.
attribute measured: pEC50

molecule | attribute measured | value reported
COC(=O)N[C@H](C(=O)N[C@@H](Cc1ccc(C#Cc2cnc(N3CC4CCC(C3)N4C3COC3)nc2)cc1)[C@H](CN(Cc1c(F)cc(-c2ccn(C(F)F)n2)cc1F)NC(=O)[C@@H](NC(=O)OC)C(C)(C)C(F)(F)F)OC(=O)CC(C)(C)c1c(CC(=O)N2C[C@H]3[C@@H]([C@H]2C(=O)O)C3(C)C)cc(C)cc1OP(=O)(O)O)C(C)(C)C(F)(F)F [Example 47] | pEC50 | 6.23
COC(=O)N[C@H](C(=O)N[C@@H](Cc1ccc(C#Cc2cnc(N3CC4CCC(C3)N4C3COC3)nc2)cc1)[C@H](CN(Cc1c(F)cc(-c2ccn(C(F)F)n2)cc1F)NC(=O)[C@@H](NC(=O)OC)C(C)(C)C(F)(F)F)OC(=O)CC(C)(C)c1c(CC(=O)NC/C(N)=N/O)cc(C)cc1OP(=O)(O)O)C(C)(C)C(F)(F)F [Example 28] | pEC50 | 6.51

----------
System: HIV-1 IIIB strain
protocol details: MT-4 HIV Wild Type Virus Infection Assay (IIIB Virus)
Format: cell-based
recorded conditions: Human immunodeficiency virus 1, IIIB, MT4, 120 h, MT-4 cells acutely infected with HIV-1 IIIB, 5 day incubation, Cell-titer glo
Below, each entry is listed alongside its reported EC50.

chemical structure | assay system | output unit | EC50
COC(=O)N[C@H](C(=O)N[C@@H](Cc1ccc(C#Cc2cnc(N3CC4CCC(C3)N4C3COC3)nc2)cc1)[C@H](CN(Cc1c(F)cc(-c2ccn(C(F)F)n2)cc1F)NC(=O)[C@@H](NC(=O)OC)C(C)(C)C(F)(F)F)OC(=O)CC(C)(C)c1c(CC(=O)N2[C@@H](C)CC[C@H]2C(=O)O)cc(C)cc1OP(=O)(O)O)C(C)(C)C(F)(F)F | HIV-1 IIIB strain | nM | 94
COC(=O)N[C@H](C(=O)N[C@@H](Cc1ccc(C#Cc2cnc(N3CC4CCC(C3)N4C3COC3)nc2)cc1)[C@H](CN(Cc1c(F)cc(-c2ccn(C(F)F)n2)cc1F)NC(=O)[C@@H](NC(=O)OC)C(C)(C)C(F)(F)F)OC(=O)CC(C)(C)c1c(CC(=O)N2C[C@@H](O)C[C@H]2C(=O)O)cc(C)cc1OP(=O)(O)O)C(C)(C)C(F)(F)F | HIV-1 IIIB strain | nM | 254
COC(=O)N[C@H](C(=O)N[C@@H](Cc1ccc(C#Cc2cnc(N3CC4CCC(C3)N4C3COC3)nc2)cc1)[C@H](CN(Cc1c(F)cc(-c2ccn(C(F)F)n2)cc1F)NC(=O)[C@@H](NC(=O)OC)C(C)(C)C(F)(F)F)OC(=O)OCOC(=O)CC(C)(C)c1c(CC(=O)N[C@@H](CC(=O)O)C(=O)O)cc(C)cc1OP(=O)(O)O)C(C)(C)C(F)(F)F | HIV-1 IIIB strain | nM | 5.9

src = patent US20250051375A1
